For each of the molecules below, state its composite z-score.
System: Plasmodium falciparum Sir2 (PF13_0152, Sir2A)
Test: pfSir2 binders on small-molecule microarrays, primary screen, biochemical, small-molecule microarray, 635 nm fluorescence (AID 1098);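 further: score merges spot fluorescence intensity with its signal-to-noise ratio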
Conditions: small-molecule microarray binding, fluorescence 635 nm; higher = more signal
// print number alone

Recorded composite z-score of CCCCCN1CC=CC23O[C@@H]4C=CCOC(=O)[C@@H]4[C@H]2C(=O)N(CCCCCCO)[C@@H]3C1=O (some centres not stated) , please.
1.93

Query `COc1ccc([Si](C)(C)[C@@H]2[C@@H](CC(=O)N3CCC[C@H]3CO)O[C@]3(C(=O)N(Cc4cccc(N5CCC5=O)c4)c4ccccc43)[C@H]2C)cc1` next
1.71

Query `C[C@H]1CC[C@@H](C(=O)O)N[C@@H]1c1ccc(C#CCN(C)C)cc1` next
0.785

Query `CC(C)(C)OC(=O)CC[C@]1(C(N)=O)COC(c2ccc(OCCCO)cc2)=N1` next
0.755

Query COC(=O)[C@@H]1CC[C@H](C)[C@@H](c2ccc(C)cc2)N1C(=O)c1ccc(C=NOC(C)CN2CCCCc3nc(C)c(C)cc32)cc1 (some centres not stated) next
0.775

Query `O=C1[C@H]2[C@H]3[C@H](O)[C@H](O)CC(=NO[C@@H]4O[C@H](CO)[C@@H](O)[C@H](O)[C@H]4O)[C@H]3CC[C@H]2C(=O)N1Cc1ccc2c(c1)OCO2` next
0.381

Query CC(C)N1CC=CC23O[C@@H]4C=CCCOC(=O)C4[C@H]2C(=O)N(CCCCCCO)[C@@H]3C1=O (some centres not stated) next
0.627

Source: PubChem BioAssay
